# System: EKVX NSCLC
# PROCEDURE_DETAILS: NCI-60 one-dose screen, 48 h (100 = growth as untreated, 0 = no growth, -100 = all killed)
# REPORTED_CONDITIONS: 10 µM unless noted
About 83,000 compounds went through this panel and 20% of them were active in at least one assay; those are over-represented in the sample as a whole.
Threshold check on growth: strictly below 70% is Yes; on or above 70% is No.

Take a look at these entries with their results.
compound=O=S(=O)(Oc1ccc(-c2cn3ccoc3n2)cc1)C1CCCCC1 system_name="EKVX NSCLC" assigned_class=No
compound=CCOC(=O)Nc1ccc2c(ccn2C(=O)c2cccc(F)c2)c1 system_name="EKVX NSCLC" assigned_class=Yes
compound=C=C(C)[C@@H]1CC[C@]2(COP(=O)(OCC)OCC)CC[C@]3(C)[C@H](CC[C@@H]4[C@@]5(C)CC[C@H](OP(=O)(OCC)OCC)C(C)(C)[C@@H]5CC[C@]43C)[C@@H]12 system_name="EKVX NSCLC" assigned_class=Yes
compound=O=c1oc2ccc(-c3ccc(F)cc3F)cc2c(=O)n1-c1ccc(Br)cc1F system_name="EKVX NSCLC" assigned_class=No
compound="CCCC/C(=C\\c1ccc(O)c(O)c1)C(=O)NC(Cc1ccccc1)C(=O)C(=O)NCCc1ccc(OC)cc1 (stereo not given)" system_name="EKVX NSCLC" assigned_class=No
compound=Cc1ncn(-c2ccc(/C=N/Nc3ccnc4cc(Cl)ccc34)cc2)c1C system_name="EKVX NSCLC" assigned_class=No

Consider the record given below.
Could you please tell me whether growth recorded for OCC(Nc1ncnc2ccc(-c3cnc4cnccn34)cc12)c1ccccc1 (stereo not given) is less than 70%? Yes
